Test system: HSSY-II complex spheroid growth, percent test/control
Test: Anticancer human tumor HSSY-II cell line growth inhibition [Asc];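 also: spheroids exposed to drug for 7 days before reading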
Details: second compound 0.316 µM; first compound 1 µM; stronger effect = lower value
PARAMETER: viability, T/C (%)

[[record]]
compound = "O=C(c1cc(Cc2n[nH]c(=O)c3ccccc23)ccc1F)N1CCN(C(=O)C2CC2)CC1 + CNC(C)C(=O)NC1CN(S(=O)(=O)c2cccc(S(=O)(=O)N3CCC4CCC(C(=O)NC(c5ccccc5)c5ccccc5)N4C(=O)C(NC(=O)C(C)NC)C3)c2)CCC2CCC(C(=O)NC(c3ccccc3)c3ccccc3)N2C1=O"
readout_units = "%"
reported_value = 67.3

[[record]]
compound = "O=C(c1ccc(F)c(F)c1Nc1ccc(I)cc1F)N1CC(O)([C@@H]2CCCCN2)C1 + CNC(C)C(=O)NC1CN(S(=O)(=O)c2cccc(S(=O)(=O)N3CCC4CCC(C(=O)NC(c5ccccc5)c5ccccc5)N4C(=O)C(NC(=O)C(C)NC)C3)c2)CCC2CCC(C(=O)NC(c3ccccc3)c3ccccc3)N2C1=O"
readout_units = "%"
reported_value = 20.4

[[record]]
compound = "CNC(C)C(=O)NC1CN(S(=O)(=O)c2cccc(S(=O)(=O)N3CCC4CCC(C(=O)NC(c5ccccc5)c5ccccc5)N4C(=O)C(NC(=O)C(C)NC)C3)c2)CCC2CCC(C(=O)NC(c3ccccc3)c3ccccc3)N2C1=O (stereo not drawn) + Cc1c(S(C)(=O)=O)c(-c2cc(F)cc(N3CCN(c4ccc(NS(=O)(=O)c5ccc(NC(CCN6CCC(C(=O)OCCCP(=O)(O)O)CC6)CSc6ccccc6)c(S(=O)(=O)C(F)(F)F)c5)cc4)CC3)c2)c(-c2ccc(Cl)cc2)n1C(C)C"
readout_units = "%"
reported_value = 86


---

System: HSSY-II complex spheroid growth, percent test/control
Assay: Anticancer human tumor HSSY-II cell line growth inhibition [Asc];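 also: spheroids exposed to drug for 7 days before reading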
Conditions: curve of first compound; second compound 0.0316 µM
We begin with a simple list: items and their reported IC50.
PARAMETER: IC50

[[record]]
molecule = "NC(=O)C(=Cn1cnc(-c2cc(C(F)(F)F)cc(C(F)(F)F)c2)n1)c1cncnc1 + CNC(C)C(=O)NC1CN(S(=O)(=O)c2cccc(S(=O)(=O)N3CCC4CCC(C(=O)NC(c5ccccc5)c5ccccc5)N4C(=O)C(NC(=O)C(C)NC)C3)c2)CCC2CCC(C(=O)NC(c3ccccc3)c3ccccc3)N2C1=O"
parameter = "IC50"
reported_value = "0.0143 µM"

[[record]]
molecule = "Cc1nc(N2CCC3(CC2)COC(C)C3N)c(CO)nc1Sc1ccnc(N)c1Cl (stereo not drawn) + CNC(C)C(=O)NC1CN(S(=O)(=O)c2cccc(S(=O)(=O)N3CCC4CCC(C(=O)NC(c5ccccc5)c5ccccc5)N4C(=O)C(NC(=O)C(C)NC)C3)c2)CCC2CCC(C(=O)NC(c3ccccc3)c3ccccc3)N2C1=O"
parameter = "IC50"
reported_value = "> 3 µM"

[[record]]
molecule = "NC1CCC(NC2CC2c2ccccc2)CC1 (stereo not drawn) + CNC(C)C(=O)NC1CN(S(=O)(=O)c2cccc(S(=O)(=O)N3CCC4CCC(C(=O)NC(c5ccccc5)c5ccccc5)N4C(=O)C(NC(=O)C(C)NC)C3)c2)CCC2CCC(C(=O)NC(c3ccccc3)c3ccccc3)N2C1=O"
parameter = "IC50"
reported_value = "< 0.000316 µM"

